# target: HCV NS3 helicase NS3h_1b(con1) (Hepatitis C virus genotype 1b)
# Construct: truncated C-terminally His-tagged NS3 proteins lacking the N-terminal protease, called NS3h; His-tag (C); made in house
# Sequence (Q9WMX2 1192-1657): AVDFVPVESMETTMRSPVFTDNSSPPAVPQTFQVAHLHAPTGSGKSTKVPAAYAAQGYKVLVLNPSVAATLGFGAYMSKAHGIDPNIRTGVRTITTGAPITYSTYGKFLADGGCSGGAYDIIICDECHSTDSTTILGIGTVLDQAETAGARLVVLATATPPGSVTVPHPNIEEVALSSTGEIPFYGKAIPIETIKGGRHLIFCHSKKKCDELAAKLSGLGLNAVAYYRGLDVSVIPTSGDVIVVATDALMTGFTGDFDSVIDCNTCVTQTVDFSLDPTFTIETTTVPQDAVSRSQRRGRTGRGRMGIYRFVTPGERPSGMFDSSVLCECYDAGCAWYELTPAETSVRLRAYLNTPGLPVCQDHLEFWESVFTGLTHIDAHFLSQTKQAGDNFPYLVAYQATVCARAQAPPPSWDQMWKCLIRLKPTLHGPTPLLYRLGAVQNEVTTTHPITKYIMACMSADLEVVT
# assay method text: MBHA screen of NCI mechanistic set library at 20 μM (percent inhibition, compound interference)
# Format: biochemical
# setup conditions: compounds at 20 μM, MBHA with a DNA substrate; calculated from Equation 1

compound: C1COCCN1.S=C(S)N1CCOCC1 [Compound 4114]
display unit: %
Inh. (%) (Inhibition): 7.2
--
compound: Cc1ccc(CC2(OCCN(C)C)CCC(C(C)(C)C)CC2)cc1.O=C(O)/C=C/C(=O)O (stereo not drawn) [Compound 670229]
display unit: %
Inh. (%) (Inhibition): −28.8
--
compound: CC1=C(N2CC2)C(=O)C(CO)=C(N2CC2)C1=O [Compound 697726]
display unit: %
Inh. (%) (Inhibition): −5.6
--
compound: Cc1ccc(Cl)c2c(N=Nc3ccccc3[N+](=O)[O-])c(O)[nH]c12 [Compound 118735]
display unit: %
Inh. (%) (Inhibition): −5.2
--
compound: O=C1c2ccccc2C(=O)C1C(c1ccc([N+](=O)[O-])cc1)C1C(=O)c2ccccc2C1=O [Compound 643148]
display unit: %
Inh. (%) (Inhibition): −20.3
--
compound: CCOC(OCC)C(CC)[Se]c1ccccc1[N+](=O)[O-] (stereo not drawn) [Compound 646200]
display unit: %
Inh. (%) (Inhibition): −3.7
--
compound: COC(=O)c1ccc(NCc2cc(O)ccc2O)cc1 [Compound 654705]
display unit: %
Inh. (%) (Inhibition): −6.0
--
compound: O=C1C=CC(CC(=O)c2ccc3ccccc3c2)O1 (stereo not drawn) [Compound 634650]
display unit: %
Inh. (%) (Inhibition): −4.4
--
compound: COc1cc(CC(=O)c2cc3c(cc2-c2ccccc2)OCO3)cc(OC)c1OC [Compound 648419]
display unit: %
Inh. (%) (Inhibition): 8.6
